# Tested on: Human immunodeficiency virus 1
# protocol details: Effective concentration against PI-Resistant HIV strain (M3)
# Assay type: functional, organism-based
# experimental context: Human immunodeficiency virus 1
Give EC50 for every item shown.
// note: answer is a bare numeric in nM

What does the data say about its EC50? Entry: `CC(C)CN(C[C@@H](O)[C@H](Cc1ccccc1)NC(=O)O[C@H]1CO[C@H]2OCC[C@H]21)S(=O)(=O)c1ccc(I)cc1`
4.07

What does the data say about its EC50? Entry: Cc1ccc(S(=O)(=O)N(CC(C)C)C[C@@H](O)[C@H](Cc2ccccc2)NC(=O)OC2COC3OCCC23)cc1 (mixture of isomers)
35.5

What does the data say about its EC50? Entry: CC(C)CN(C[C@@H](O)[C@H](Cc1ccccc1)NC(=O)OC1COC2OCCC12)S(=O)(=O)c1ccccc1 (mixture of isomers)
47.9

What does the data say about its EC50? Entry: `CC(C)CN(C[C@@H](O)[C@H](Cc1ccccc1)NC(=O)O[C@H]1CO[C@H]2OCC[C@H]21)S(=O)(=O)c1ccc(C#N)cc1`
39.8

What does the data say about its EC50? Entry: `CC(C)CN(C[C@@H](O)[C@H](Cc1ccccc1)NC(=O)O[C@@H]1CO[C@H]2OCC[C@H]21)S(=O)(=O)c1ccc(N)cc1`
479

What does the data say about its EC50? Entry: `CC(C)CN(C[C@@H](O)[C@H](Cc1ccccc1)NC(=O)O[C@H]1CO[C@H]2OCC[C@H]21)S(=O)(=O)c1ccc2c(c1)OCO2`
3.47

---

# protocol details: Percentage of remaining compound after 30 min incubation in dog liver microsomes was determined as metabolic stability
# Format: ADME, Canis lupus familiaris, Microsome
# experimental context: read-out: Remaining compound
readout name: remaining at 0.5 h (%)
// note: answer is a bare numeric in %

What does the data say about its remaining at 0.5 h? Entry: `CC(C)CN(C[C@@H](O)[C@H](Cc1ccccc1)NC(=O)O[C@H]1CCOC1)S(=O)(=O)c1ccc(N)cc1`
81

What does the data say about its remaining at 0.5 h? Entry: `CC(C)(C)NC(=O)[C@@H]1CN(Cc2cccnc2)CCN1C[C@@H](O)C[C@@H](Cc1ccccc1)C(=O)N[C@H]1c2ccccc2C[C@H]1O`
85

What does the data say about its remaining at 0.5 h? Entry: `COc1ccc(S(=O)(=O)N(CC(C)C)C[C@@H](O)[C@H](Cc2ccccc2)NC(=O)O[C@H]2CO[C@H]3OCC[C@H]32)cc1`
11

What does the data say about its remaining at 0.5 h? Entry: `CC(C)CN(C[C@@H](O)[C@H](Cc1ccccc1)NC(=O)O[C@H]1CO[C@H]2OCC[C@H]21)S(=O)(=O)c1ccc2c(c1)OCO2`
53

What does the data say about its remaining at 0.5 h? Entry: CC(C)CN(C[C@@H](O)[C@H](Cc1ccccc1)NC(=O)O[C@H]1CO[C@H]2OCC[C@H]21)S(=O)(=O)c1ccc(N)cc1 (stereo in doubt; form 2)
80

---

Give EC50 for every item shown.
# Tested on: Human immunodeficiency virus 1
# protocol details: Effective concentration against PI-Resistant HIV strain (M1)
# Assay type: functional, organism-based
// note: answer is a bare numeric in nM

What does the data say about its EC50? Entry: `CC(C)CN(C[C@@H](O)[C@H](Cc1ccccc1)NC(=O)O[C@H]1CO[C@H]2OCC[C@H]21)S(=O)(=O)c1ccc(O)cc1`
23.4

What does the data say about its EC50? Entry: `CC(C)CN(C[C@@H](O)[C@H](Cc1ccccc1)NC(=O)O[C@H]1CO[C@H]2OCC[C@H]21)S(=O)(=O)c1ccc(CN)cc1`
7.59

What does the data say about its EC50? Entry: `CC(C)CN(C[C@@H](O)[C@H](Cc1ccccc1)NC(=O)O[C@@H]1CO[C@@H]2OCC[C@@H]21)S(=O)(=O)c1ccc(N)cc1`
37.2
